Hey, just so you know, these numbers are from patent US6515173B1.

Target of assay: mICE (Mus musculus, UniProt P29452)
Peptide text beside a SMILES is read from it. * marks the point of attachment. Cbz = O=C(OCc1ccccc1)*; CH2F = FC*
Observable: pKi
FYI, pKi means -log10 of a concentration in mol per litre.

Item: CC(NC(=O)C(NC(=O)OCc1ccccc1)C(C)C)C(=O)NC(CC(=O)O)C(=O)CF (stereo not drawn) [reference, Cbz-ValAlaAsp-CH2F] (Cbz-Val-Ala-Asp-CH2F; configuration not given here) | pKi: 7.82
